This section presents compounds with their documented IC50 values.
assay: Cytotoxicity against human DRO 81-1 cells after 72 hrs by MTS assay; assay type: functional, cell-based
measured.endpoint: IC50 (nM)

structure.smiles.string: CC1=C(COC(=O)c2ccc(Cl)cc2)C(=O)O[C@@H]([C@@H](C)[C@H]2CC[C@H]3[C@@H]4C[C@H]5O[C@]56[C@@H](OC(=O)c5ccc(Cl)cc5)C=CC(=O)[C@]6(CO)[C@H]4CC[C@]23C)C1
unit.abbrev: nM
relational.operator: ≥
recorded.number: 10000
--
structure.smiles.string: CC(=O)OCC1=C(C)C[C@H]([C@@H](C)[C@H]2CC[C@H]3[C@@H]4C[C@@H](O)[C@@]5(Cl)CC=CC(=O)[C@]5(COC(C)=O)[C@H]4CC[C@]23C)OC1=O
unit.abbrev: nM
relational.operator: =
recorded.number: 1350
--
structure.smiles.string: CC(=O)OCC1=C(C)C[C@H]([C@@H](C)[C@H]2CC[C@H]3[C@@H]4C[C@H]5O[C@]56[C@@H](OC(C)=O)C=CC(=O)[C@]6(COC(C)=O)[C@H]4CC[C@]23C)OC1=O
unit.abbrev: nM
relational.operator: =
recorded.number: 110
--
structure.smiles.string: CC1=C(CO)C(=O)O[C@@H]([C@@H](C)[C@H]2CC[C@H]3[C@@H]4C[C@H]5O[C@]56[C@@H](OC(=O)c5ccc(Cl)cc5)C=CC(=O)[C@]6(CO)[C@H]4CC[C@]23C)C1
unit.abbrev: nM
relational.operator: =
recorded.number: 1850

* * *

tested on: MRC5; assay: Cytotoxicity against human MRC5 cells after 72 hrs by MTS assay; assay type: cell-based; settings: MRC5, 72 h
Listed next: entries and their corresponding IC50.

structure.smiles.string: CC(=O)OCC1=C(C)C[C@H]([C@@H](C)[C@H]2CC[C@H]3[C@@H]4C[C@H]5O[C@]56[C@@H](OC(C)=O)C=CC(=O)[C@]6(COC(C)=O)[C@H]4CC[C@]23C)OC1=O
assayed.target: MRC5
relational.operator: =
IC50 (nM): 310
//
structure.smiles.string: CC(=O)OCC1=C(C)C[C@H]([C@@H](C)[C@H]2CC[C@H]3[C@@H]4C[C@H]5O[C@]56[C@@H](O)C=CC(=O)[C@]6(CO)[C@H]4CC[C@]23C)OC1=O
assayed.target: MRC5
relational.operator: =
IC50 (nM): 2300
//
structure.smiles.string: CC(=O)OCC1=C(C)C[C@H]([C@@H](C)[C@H]2CC[C@H]3[C@@H]4C[C@H]5O[C@]56CC=CC(=O)[C@]6(COC(C)=O)[C@H]4CC[C@]23C)OC1=O
assayed.target: MRC5
relational.operator: =
IC50 (nM): 2050
//
structure.smiles.string: CC1=C(COC(=O)c2ccc(Cl)cc2)C(=O)O[C@@H]([C@@H](C)[C@H]2CC[C@H]3[C@@H]4C[C@H]5O[C@]56[C@@H](OC(=O)c5ccc(Cl)cc5)C=CC(=O)[C@]6(COC(=O)c5ccc(Cl)cc5)[C@H]4CC[C@]23C)C1
assayed.target: MRC5
relational.operator: ≥
IC50 (nM): 10000

* * *

tested on: MRC5; assay: Cytotoxicity against human MRC5 cells after 72 hrs by MTS assay; format: cell-based; settings: MRC5, 72 h
pIC50: −log10 of the molar value.
// values below are reported pIC50

structure.smiles.string: CC(=O)OCC1=C(C)C[C@H]([C@@H](C)[C@H]2CC[C@H]3[C@@H]4C[C@@H](O)C5=CC=CC(=O)[C@]5(COC(C)=O)[C@H]4CC[C@]23C)OC1=O
relational.operator: ≤
pIC50: 5.00
//
structure.smiles.string: C=CCCC(=O)OC[C@]12C(=O)C=C[C@H](OC(=O)CCC=C)[C@]13O[C@@H]3C[C@H]1[C@@H]3CC[C@H]([C@H](C)[C@H]4CC(C)=C(COC(C)=O)C(=O)O4)[C@@]3(C)CC[C@@H]12
relational.operator: =
pIC50: 6.06
//
structure.smiles.string: CC1=C(CO)C(=O)O[C@@H]([C@@H](C)[C@H]2CC[C@H]3[C@@H]4C[C@H]5O[C@]56[C@@H](OC(=O)N(C)C)C=CC(=O)[C@]6(CO)[C@H]4CC[C@]23C)C1
relational.operator: =
pIC50: 5.76
//
structure.smiles.string: CC(=O)OC[C@]12C(=O)C=C[C@H](OC(=O)c3ccc(Cl)cc3)[C@]13O[C@@H]3C[C@H]1[C@@H]3CC[C@H]([C@H](C)[C@H]4CC(C)=C(COC(=O)c5ccc(Cl)cc5)C(=O)O4)[C@@]3(C)CC[C@@H]12
relational.operator: ≤
pIC50: 5.00

* * *

assay: Cytotoxicity against human DRO 81-1 cells after 72 hrs by MTS assay; format: functional, cell-based
pIC50: −log10 of the molar value.
If the reported pIC50 equals or exceeds 6, assign Y. If not, assign N.

structure.smiles.string: CC(=O)O[C@H]1C=CC(=O)[C@]2(CO)[C@H]3CC[C@]4(C)[C@@H]([C@H](C)[C@H]5CC(C)=C(CO)C(=O)O5)CC[C@H]4[C@@H]3C[C@H]3O[C@]132
cat: Y

structure.smiles.string: CC1=C(COC(=O)c2ccc(Cl)cc2)C(=O)O[C@@H]([C@@H](C)[C@H]2CC[C@H]3[C@@H]4C[C@H]5O[C@]56[C@@H](OC(=O)c5ccc(Cl)cc5)C=CC(=O)[C@]6(COC(=O)c5ccc(Cl)cc5)[C@H]4CC[C@]23C)C1
cat: N

structure.smiles.string: CC(=O)OCC1=C(C)C[C@H]([C@@H](C)[C@H]2CC[C@H]3[C@@H]4C[C@H]5O[C@]56[C@@H](OC(=O)N(C)C)C=CC(=O)[C@]6(COC(C)=O)[C@H]4CC[C@]23C)OC1=O
cat: Y

structure.smiles.string: CC1=C(COC(=O)c2ccc(Cl)cc2)C(=O)O[C@@H]([C@@H](C)[C@H]2CC[C@H]3[C@@H]4C[C@H]5O[C@]56[C@@H](O)C=CC(=O)[C@]6(COC(=O)c5ccc(Cl)cc5)[C@H]4CC[C@]23C)C1
cat: N

structure.smiles.string: CCC(=O)OCC1=C(C)C[C@H]([C@@H](C)[C@H]2CC[C@H]3[C@@H]4C[C@H]5O[C@]56[C@@H](OC(=O)CC)C=CC(=O)[C@]6(COC(=O)CC)[C@H]4CC[C@]23C)OC1=O
cat: Y

structure.smiles.string: CC1=C(CO)C(=O)O[C@@H]([C@@H](C)[C@H]2CC[C@H]3[C@@H]4C[C@H]5O[C@]56[C@@H](OC(=O)N(C)C)C=CC(=O)[C@]6(CO)[C@H]4CC[C@]23C)C1
cat: Y

structure.smiles.string: CC(=O)OCC1=C(C)C[C@H]([C@@H](C)[C@H]2CC[C@H]3[C@@H]4C[C@@H](O)C5=CC=CC(=O)[C@]5(COC(C)=O)[C@H]4CC[C@]23C)OC1=O
cat: N

* * *

system: MRC5; test: Cytotoxicity against human MRC5 cells after 72 hrs by MTS assay; type: cell-based; details: MRC5, 72 h
pIC50: −log10 of the molar value.

structure.smiles.string: CC(=O)OCC1=C(C)C[C@H]([C@@H](C)[C@H]2CC[C@H]3[C@@H]4C[C@H]5O[C@]56[C@@H](OC(=O)N(C)C)C=CC(=O)[C@]6(COC(C)=O)[C@H]4CC[C@]23C)OC1=O
assayed.target: MRC5
relational.operator: =
pIC50: 6.29
//
structure.smiles.string: CC(=O)O[C@H]1C=CC(=O)[C@]2(CO)[C@H]3CC[C@]4(C)[C@@H]([C@H](C)[C@H]5CC(C)=C(CO)C(=O)O5)CC[C@H]4[C@@H]3C[C@H]3O[C@]132
assayed.target: MRC5
relational.operator: =
pIC50: 5.92
//
structure.smiles.string: CC(=O)OCC1=C(C)C[C@H]([C@@H](C)[C@H]2CC[C@H]3[C@@H]4C[C@@H](OC(C)=O)C5=CC=CC(=O)[C@]5(COC(C)=O)[C@H]4CC[C@]23C)OC1=O
assayed.target: MRC5
relational.operator: ≤
pIC50: 5.00
//
structure.smiles.string: CCC(=O)OCC1=C(C)C[C@H]([C@@H](C)[C@H]2CC[C@H]3[C@@H]4C[C@H]5O[C@]56[C@@H](OC(=O)CC)C=CC(=O)[C@]6(COC(=O)CC)[C@H]4CC[C@]23C)OC1=O
assayed.target: MRC5
relational.operator: =
pIC50: 6.21

* * *

Item-by-item account of pIC50
test system: MRC5; assay: Cytotoxicity against human MRC5 cells after 72 hrs by MTS assay; assay type: cell-based; conditions: MRC5, 72 h
pIC50: −log10 of the molar value.

molecule: CC1=C(COC(=O)c2ccc(Cl)cc2)C(=O)O[C@@H]([C@@H](C)[C@H]2CC[C@H]3[C@@H]4C[C@H]5O[C@]56[C@@H](O)C=CC(=O)[C@]6(COC(=O)c5ccc(Cl)cc5)[C@H]4CC[C@]23C)C1
assayed.target: MRC5
pIC50: 5.63
//
molecule: CC(=O)OCC1=C(C)C[C@H]([C@@H](C)[C@H]2CC[C@H]3[C@@H]4C[C@H]5O[C@]56[C@@H](OC(C)=O)C=CC(=O)[C@]6(CO)[C@H]4CC[C@]23C)OC1=O
assayed.target: MRC5
pIC50: 6.53
//
molecule: CC(=O)OCC1=C(C)C[C@H]([C@@H](C)[C@H]2CC[C@H]3[C@@H]4C[C@@H](O)[C@@]5(Cl)CC=CC(=O)[C@]5(COC(C)=O)[C@H]4CC[C@]23C)OC1=O
assayed.target: MRC5
pIC50: 5.50
//
molecule: CC1=C(CO)C(=O)O[C@@H]([C@@H](C)[C@H]2CC[C@H]3[C@@H]4C[C@H]5O[C@]56[C@@H](O)C=CC(=O)[C@]6(C)[C@H]4CC[C@]23C)C1 [WITHAFERIN A]
assayed.target: MRC5
pIC50: 5.57
